tested on: HCT-8; assay: Antiproliferative activity against human HCT8 cells by MTT assay; format: functional, cell-based
pIC50: −log10 of the molar value.

[
  {
    "chemical structure": "CCCCO[C@@H]1OC[C@]23CC[C@@]1(C)C[C@H]2C1=CC[C@@H]2[C@@]4(C)CC[C@H](O[C@@H]5OC[C@H](O[C@@H]6O[C@H](CO)[C@@H](O)[C@H](O)[C@H]6O)[C@H](O)[C@H]5O[C@@H]5O[C@H](CO)[C@@H](O)[C@H](O)[C@H]5O)C(C)(C)[C@@H]4CC[C@@]2(C)[C@]1(C)C[C@H]3O",
    "pIC50": "< 4.00"
  },
  {
    "chemical structure": "CCCCO[C@@H]1OC[C@]23CC[C@@]1(C)C[C@H]2C1=CC[C@@H]2[C@@]4(C)CC[C@H](O)C(C)(C)[C@@H]4CC[C@@]2(C)[C@]1(C)C[C@H]3O",
    "pIC50": "< 4.00"
  },
  {
    "chemical structure": "C[C@@H]1O[C@@H](O[C@H]2[C@H](O)[C@@H](CO)O[C@@H](O[C@H]3CO[C@@H](O[C@H]4CC[C@]5(C)[C@H]6CC[C@]78OC[C@@]9(CC[C@](C)(CO)C[C@H]97)C(=O)C[C@@]8(C)[C@]6(C)CC[C@H]5C4(C)C)[C@H](O[C@@H]4O[C@H](CO)[C@@H](O)[C@H](O)[C@H]4O)[C@H]3O)[C@@H]2O[C@@H]2OC[C@@H](O)[C@H](O)[C@H]2O)[C@H](O)[C@H](O)[C@H]1O",
    "pIC50": 5.47
  }
]

* * *

test system: A549; assay: Antiproliferative activity against human A549 cells by MTT assay; type: functional, cell-based
pIC50: −log10 of the molar value.
Catalogue of pIC50 values

[
  {
    "chemical structure": "CC(=O)OC[C@H]1O[C@@H](O[C@H]2[C@H](O[C@H]3CC[C@]4(C)[C@H]5CC[C@]67OC[C@@]8(CC[C@](C)(C=O)C[C@H]86)[C@H](O)C[C@@]7(C)[C@]5(C)CC[C@H]4C3(C)C)OC[C@H](O[C@@H]3O[C@H](CO)[C@@H](O)[C@H](O[C@@H]4O[C@@H](C)[C@H](O)[C@@H](O)[C@H]4O)[C@H]3O[C@@H]3OC[C@@H](O)[C@H](O)[C@H]3O)[C@@H]2O)[C@H](O)[C@@H](O)[C@@H]1O",
    "pIC50": 5.12
  },
  {
    "chemical structure": "CC(=O)OC[C@H]1O[C@@H](O[C@H]2[C@H](O[C@H]3CC[C@]4(C)[C@H]5CC[C@]67OC[C@@]8(CCC(C)(C)C[C@H]86)[C@H](O)C[C@@]7(C)[C@]5(C)CC[C@H]4C3(C)C)OC[C@H](O[C@@H]3O[C@H](CO)[C@@H](O)[C@H](O[C@@H]4O[C@@H](C)[C@H](O)[C@@H](O)[C@H]4O)[C@H]3O[C@@H]3OC[C@@H](O)[C@H](O)[C@H]3O)[C@@H]2O)[C@H](O)[C@@H](O)[C@@H]1O",
    "pIC50": 5.09
  }
]

* * *

system: A549; experiment: Antiproliferative activity against human A549 cells by MTT assay; assay type: functional, cell-based

[
  {
    "chemical structure": "C[C@@H]1O[C@@H](O[C@H]2[C@H](O)[C@@H](CO)O[C@@H](O[C@H]3CO[C@@H](O[C@H]4CC[C@]5(C)[C@H]6CC[C@]78OC[C@@]9(CC[C@](C)(CO)C[C@H]97)C(=O)C[C@@]8(C)[C@]6(C)CC[C@H]5C4(C)C)[C@H](O[C@@H]4O[C@H](CO)[C@@H](O)[C@H](O)[C@H]4O)[C@H]3O)[C@@H]2O[C@@H]2OC[C@@H](O)[C@H](O)[C@H]2O)[C@H](O)[C@H](O)[C@H]1O",
    "tested target": "A549",
    "modifier sign": "=",
    "IC50 (µM)": 3.77
  },
  {
    "chemical structure": "C[C@@H]1O[C@@H](O[C@H]2[C@H](O)[C@@H](CO)O[C@@H](O[C@H]3CO[C@@H](O[C@H]4CC[C@]5(C)[C@H]6CC[C@]78OC[C@@]9(CC[C@](C)(C=O)C[C@H]97)[C@H](O)C[C@@]8(C)[C@]6(C)CC[C@H]5C4(C)C)[C@H](O[C@@H]4O[C@H](CO)[C@@H](O)[C@H](O)[C@H]4O)[C@H]3O)[C@@H]2O[C@@H]2OC[C@@H](O)[C@H](O)[C@H]2O)[C@H](O)[C@H](O)[C@H]1O",
    "tested target": "A549",
    "modifier sign": ">",
    "IC50 (µM)": 100
  }
]
